Just for reference, PubChem BioAssay (NCI) is where these values come from.

System: NCI-H226 lung
Assay: NCI-60 one-dose screen, 48 h (100 = growth as untreated, 0 = no growth, -100 = all killed)
Conditions: 10 µM
Description: Growth inhibition of the NCI-H226 human Non-Small Cell Lung tumor cell line is measured as a screen for anti-cancer activity. Cells are grown in 96 well plates and exposed to the test compound for 48 hours. Compounds are tested at a single concentration, which is 10^-5 M for most compounds. The reported endpoint is percent growth (GI% or GIPRCNT), where numbers from 0 - 100% represent growth inhibition, and numbers from -100% - 0 represent cell death. […]
Compounds without any hit were thinned out: in the full panel of roughly 83,000, 20% have a hit.
READOUT TYPE: growth (%)

compound=Nc1nc(N)c(N=Nc2c(Br)cc(S(N)(=O)=O)cc2Br)c(N)n1 result=91.9
compound=COc1ccc(-c2c3c(N)c4c(nc3nc3c2c(C)nn3-c2ccccc2)CCCC4)cc1 result=86.9
compound=Clc1ccc(C2=NN(c3ccccc3)[C@H](c3cn(-c4ccccc4)nc3-c3ccccc3)C2)cc1 result=96.1
compound=Cc1nc2cc(Nc3nc(Nc4ccc(F)cc4)nc(-c4cccs4)n3)ccc2n1Cc1ccccc1 result=65
compound="COc1cccc(-c2ccc3c(c2)C2CCN(Cc4ccccc4)C3C2)c1 (stereo not drawn)" result=99.2
compound=CCCC1=NNC(=O)C1 result=108
compound=Cn1cc(C(=O)NCCC(=N)N)cc1NC(=O)CN=C(N)N result=90.7
compound=Cc1ccc(C(=O)Nc2ccccc2N)cc1 result=74.5
compound=O=C1/C(=C/c2ccc(Cl)cc2)CN(Cc2cn(CCCNc3ccnc4cc(Cl)ccc34)nn2)C/C1=C\c1ccc(Cl)cc1 result=-81.4
compound=O=C(O)CCN1CCN(c2cccc(Cl)c2)CC1 result=104
compound=Cc1ccc(-c2c3c(N)c4c(nc3nc3c2c(C)nn3-c2ccccc2)CCCC4)cc1 result=91.8
compound=Cc1nc2cc(Nc3nc(NCCO)nc(Nc4ccc(F)cc4)n3)ccc2n1Cc1ccccc1 result=91.6
compound=COc1ccc(-c2nc(Nc3ccc(F)cc3)nc(Nc3ccc4c(c3)nc(C)n4Cc3ccccc3)n2)cc1 result=66.6
compound=COc1cc2nc(N3CCC[C@H](NC4=CC(=O)c5ccccc5C4=O)C3)nc(N)c2cc1OC result=107
compound=CCCCNNC(=O)c1ccc(Br)cc1 result=62.5
compound=COc1cc(C(=O)/C=C/c2c(-c3cccs3)nc3sccn23)cc(OC)c1OC result=26.2
compound="CN1CCc2cccc3c2C1Cc1ccc(O)c(O)c1-3 (stereo not drawn)" result=80.8
compound=COc1ncc(F)c(OC)n1 result=101
compound="C=C(C)CCCC(C)CC#N (stereo not drawn)" result=99.4
compound=COc1ccc(C(=O)C2=CC(=O)C(=O)C2)cc1OC result=103
compound="O=C1CC2c3cc(-c4cc5ccccc5o4)ccc3CCN2C(=O)N1c1ccccc1 (stereo not drawn)" result=93.5
compound=COc1ccc(-c2nc3sc(C)cn3c2/C=C/C(=O)c2cc(OC)c(OC)c(OC)c2)cc1 result=76.9
compound=CCCCC(=O)N/N=C/c1cc(I)cc(I)c1O result=73.3
compound=CON=C1C[C@]2(C[C@@H]3C[C@@H](C/C=C(\C)C[C@@H](C)/C=C/C=C4\CO[C@@H]5[C@H](O)C(C)=C[C@@H](C(=O)O3)[C@]45O)O2)O[C@H](/C(C)=C/C(C)C)[C@H]1C result=72
compound=Cc1nc2cc(Nc3nc(Cl)nc(Nc4ccc(F)cc4)n3)ccc2n1Cc1ccccc1 result=80.5
compound=CC(C)N1CCN(c2ccc(OC[C@H]3CO[C@](Cn4cncn4)(c4ccc(Cl)cc4Cl)O3)cc2)CC1 result=93.6
compound="COc1cc(C2=NN(c3ccc(S(N)(=O)=O)cc3)C(c3ccc(Cl)cc3)C2)cc(OC)c1OC (stereo not drawn)" result=55.6
compound=Cn1c2c(cc(S(=O)(=O)c3ccccc3)c1=O)CCc1c-2cnn1-c1ccccc1Cl result=117
compound=CCOC(=O)c1cc2c(n(C)c1=O)-c1cnn(-c3ccc(OC)cc3)c1CC2 result=107
compound=Cc1ccc(S(=O)(=O)N(c2ccc(Cl)cc2)c2ccc(Br)cc2C(=O)O)cc1 result=97.7
compound="O=[N+]([O-])c1cc2c(cc1Br)C1C(C3C2C(Cl)(Cl)C(Cl)=C(Cl)C3(Cl)Cl)C(Cl)(Cl)C(Cl)=C(Cl)C1(Cl)Cl (stereo not drawn)" result=86.7
compound=CC1(C)N=C(N)N=C(N)N1c1cccc(OCCOc2cccc([N+](=O)[O-])c2)c1 result=98.2
compound=O=[N+]([O-])c1ccc(O)c2ncccc12 result=81.1
